assay: Tissue PK profile in rat (liver and plasma drug level); type: in vivo; conditions: in vivo, po, 10 mg/kg, plasma concentration
Please note: Fulfilled applies when concentration at 4 h is 30 nM or greater, and Not fulfilled applies otherwise.

INSERT INTO measurements (smiles_record, label_class) VALUES
  ('O=C(O)CNC(=O)c1c(O)c2c(n(Cc3cnc(C(F)(F)F)cn3)c1=O)COC2', 'Not fulfilled'),
  ('O=C(O)CNC(=O)c1c(O)c2c(n(Cc3cc(F)c(F)cc3F)c1=O)COC2', 'Fulfilled'),
  ('CC(C)(O)c1ccc(Cn2c3c(c(O)c(C(=O)NCC(=O)O)c2=O)COC3)cc1', 'Not fulfilled'),
  ('O=C(O)CNC(=O)c1c(O)c2c(n(Cc3nc4ccccc4o3)c1=O)COC2', 'Fulfilled'),
  ('O=C(O)CNC(=O)c1c(O)c2c(n(Cc3cnc(C(F)(F)F)nc3)c1=O)COC2', 'Not fulfilled');

Entry `O=C(O)CNC(=O)c1c(O)c2c(n(Cc3ncc(C(F)(F)F)cn3)c1=O)COC2` : is its concentration at 4 h no less than 30 nM?
Fulfilled

Identify whether the reported concentration at 4 h of the following molecule is 30 nM or greater: `O=C(O)CNC(=O)c1c(O)c2c(n(Cc3cnc(C(F)(F)F)s3)c1=O)COC2`
Fulfilled
